Taken from PubChem BioAssay AID624330.

# system tested: Rac GTPase-activating protein 1 (Homo sapiens) (UniProt Q9H0H5)
# Sequence (Q9H0H5 whole entry, looked up): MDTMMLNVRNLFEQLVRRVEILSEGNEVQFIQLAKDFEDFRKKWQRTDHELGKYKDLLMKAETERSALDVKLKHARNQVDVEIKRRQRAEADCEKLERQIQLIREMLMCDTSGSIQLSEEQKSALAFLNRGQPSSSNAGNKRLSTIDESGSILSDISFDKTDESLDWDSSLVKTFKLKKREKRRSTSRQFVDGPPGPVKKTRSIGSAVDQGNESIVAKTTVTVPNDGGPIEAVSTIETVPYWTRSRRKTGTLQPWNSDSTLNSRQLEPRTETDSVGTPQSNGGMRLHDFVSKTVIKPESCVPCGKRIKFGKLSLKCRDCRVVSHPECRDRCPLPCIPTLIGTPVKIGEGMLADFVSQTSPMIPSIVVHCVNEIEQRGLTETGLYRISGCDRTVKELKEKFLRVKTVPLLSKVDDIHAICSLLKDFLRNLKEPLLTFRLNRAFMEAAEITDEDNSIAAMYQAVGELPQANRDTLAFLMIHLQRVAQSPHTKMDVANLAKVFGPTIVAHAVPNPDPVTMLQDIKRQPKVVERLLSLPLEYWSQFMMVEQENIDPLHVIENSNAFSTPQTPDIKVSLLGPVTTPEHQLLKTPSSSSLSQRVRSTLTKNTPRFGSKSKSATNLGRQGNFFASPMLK
# experiment notes: blockers of MgcRacGAP-driven Rac1 GTP hydrolysis – biochemical, ADP Hunter fluorescence, primary and confirmatory, confirmation (AID 624330);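 note: fluorescence reports GDP produced by GAP-driven GTP hydrolysis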
# run conditions: MgcRacGAP-stimulated Rac1 GTP hydrolysis, at 30 µM, hits give high values, GST-tagged Rac1 F28L mutant substrate
The campaign covered roughly 340,000 compounds. About 2,100 (0.62%) were called active. Not all results are given here. Results with a measured potency or affinity are listed apart.
The reader will find reported inhibition values listed item by item below.
property: inhibition (%)

>>> recorded_measurement("COc1ccc(/C=N/N2C(=O)c3ccccc3C2=O)cc1")
-3.67
>>> recorded_measurement("COC(=O)C1=C(CS(=O)(=O)c2ccc(Cl)cc2)NC(=O)NC1c1ccc(O)c(OC)c1 (centres undefined)")
0.39
>>> recorded_measurement("COc1cc2nc(N3CCN(C(=O)c4ccco4)CC3)nc(N)c2cc1OC")
17.7
>>> recorded_measurement("Cc1ccccc1C(=O)c1cccn1CC(=O)NC1CCCC(C)C1C (centres undefined)")
-36.1
>>> recorded_measurement("O=C(COC(=O)c1cc(=O)[nH]c(=O)[nH]1)NCc1ccccc1")
3.71
>>> recorded_measurement("O=C(NCCC1=CCCCC1)C(=O)c1c[nH]c2ccccc12")
1.95
>>> recorded_measurement("Fc1ccc(-n2cc(CNCCc3ccncc3)c(-c3ccccc3Cl)n2)cc1")
1.7
>>> recorded_measurement("O=C(NCCO)c1ccc(-c2nnc(N3CCOCC3)c3ccccc23)cc1")
1.36
>>> recorded_measurement("Cc1ccc(-c2cn3c(n2)SCC3)cc1")
14.4

---

# system tested: Rac GTPase-activating protein 1 (Homo sapiens) (UniProt Q9H0H5)
# experiment notes: blockers of MgcRacGAP-driven Rac1 GTP hydrolysis – biochemical, ADP Hunter fluorescence, primary and confirmatory, confirmation (AID 624330);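 note: fluorescence reports GDP produced by GAP-driven GTP hydrolysis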
# run conditions: MgcRacGAP-stimulated Rac1 GTP hydrolysis, at 30 µM, hits give high values, GST-tagged Rac1 F28L mutant substrate
The campaign covered roughly 340,000 compounds. About 2,100 (0.62%) were called active. Not all results are given here. Potency and affinity values are given separately.
property: inhibition (%)

>>> recorded_measurement("COc1cc2c(cc1OC)C1(CCCC1)CNC2C (configuration not stated)")
1.49
>>> recorded_measurement("Cc1ccc2nc(C)cc(C(=O)N3CCCC(CO)(Cc4ccccc4C)C3)c2c1 (configuration not stated)")
8.23
>>> recorded_measurement("CCc1c(C)nc(N)nc1Cl")
-2.74
>>> recorded_measurement("CCOC(=O)c1[nH]c2cc(OC)c(OC)cc2c1NC(=O)c1nonc1C")
9.89
>>> recorded_measurement("COc1cc(OC)c(OC)cc1C#N")
2.13
>>> recorded_measurement("COc1cccc(C(=O)NC2(C(F)(F)F)N=C3SCCN3C2=O)c1 (configuration not stated)")
8.58
>>> recorded_measurement("CCCCNc1c(-c2ccc(-c3ccc(OC)cc3)c(OC)c2)nc2ccccn12")
0.86

---

The reader will find reported inhibition values listed item by item below.
# system tested: Rac GTPase-activating protein 1 (Homo sapiens) (UniProt Q9H0H5)
# experiment notes: blockers of MgcRacGAP-driven Rac1 GTP hydrolysis – biochemical, ADP Hunter fluorescence, primary and confirmatory, confirmation (AID 624330);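 note: fluorescence reports GDP produced by GAP-driven GTP hydrolysis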
# run conditions: MgcRacGAP-stimulated Rac1 GTP hydrolysis, at 30 µM, hits give high values, GST-tagged Rac1 F28L mutant substrate
About 2,100 (0.62%) of roughly 340,000 compounds were called active. These entries were drawn from the full list. Measured potencies and affinities stand elsewhere.
property: inhibition (%)

>>> recorded_measurement("CC(C)(C)CC(=O)Nc1ccc(C(N)=O)cc1")
5.87
>>> recorded_measurement("c1ccc(CN2CCC3CC2c2cc(N4CCOCC4)ccc23)cc1 (centres undefined)")
11.4
>>> recorded_measurement("CCOCCCNC(=S)N1CCCN(c2nc3cc(C)ccc3cc2C#N)CC1")
10.8
>>> recorded_measurement("CCC(=O)Nc1cccc(NC(=O)CN2CCN(c3ccccc3OC)CC2)c1")
9.77
>>> recorded_measurement("CCOC(=O)C1CCCN(C(=O)c2ccccc2[N+](=O)[O-])C1 (centres undefined)")
3.25
>>> recorded_measurement("COCCNC(=S)NNc1ccc(Cl)c(C(=O)O)c1")
7.21
>>> recorded_measurement("O=C(c1cc(C2CC2)nn1-c1ccccc1)N1CCN(c2ccccc2O)CC1")
5.58
>>> recorded_measurement("O=C(Nc1ccccc1)c1ccccc1OCc1ccc(F)cc1")
13.5
>>> recorded_measurement("CC1(C)CC(=O)C([N+](=O)[O-])=C(NCCCC(=O)O)C1")
6.3
>>> recorded_measurement("Cc1ccc(-c2cc(C(=O)N3CCN(c4ccccc4O)CC3)c3ccccc3n2)cc1")
2.39
>>> recorded_measurement("CC(=O)Nc1ccc(NC(=O)Nc2ccccc2)cc1")
-3.27
>>> recorded_measurement("Cc1cccc(NC(=O)CC(C)(C)C)c1")
5.55
>>> recorded_measurement("Cc1cc(C(=O)Nc2ccccc2[N+](=O)[O-])cs1")
0.21
>>> recorded_measurement("O=C(c1ccc(Cl)c(S(=O)(=O)N2CCCC2)c1)N1CCN(c2ccc(F)cc2)CC1")
6.75
